Field: Ratio. Provide a value for each of the compounds that follow.
molecular target: Angiotensin II receptor (Rattus norvegicus) (UniProt P29089+P25095+P35351); experiment: Ratio of inhibitory concentration against AT2 receptor and AT1 receptor of rat adrenal membrane
Answers are plain numbers.

CCCCOC(=O)NS(=O)(=O)c1ccccc1-c1ccc(Cn2c(CC)nc3ccc(NC(=O)N4CCOCC4)cc3c2=O)c(F)c1 ... 2.2
Cc1nc2ccc(NC(=O)N(C)C)cc2c(=O)n1Cc1ccc(-c2ccccc2S(=O)(=O)NC(=O)OCCC2CC2)cc1F ... 1.2

Need Ratio for each of these compounds.
1. Cc1nc2ccc(NC(=O)N(C)C(C)C)cc2c(=O)n1Cc1ccc(-c2ccccc2S(=O)(=O)NC(=O)OCCC(C)C)cc1F
2. CCCCOC(=O)NS(=O)(=O)c1ccccc1-c1ccc(Cn2c(CCCC)nc3ccc(NC(=O)N(C)C(C)C)cc3c2=O)c(F)c1
3. CCc1nc2ccc(NC(=O)NC(C)C)cc2c(=O)n1Cc1ccc(-c2ccccc2S(=O)(=O)NC(=O)OCCC2CC2)cc1F
4. CCCc1nc2ccc(NC(=O)NC(C)C)cc2c(=O)n1Cc1ccc(-c2ccccc2S(=O)(=O)NC(=O)COCC(C)C)cc1F
5. CCc1nc2ccc(NC(=O)N(C)C(C)C)cc2c(=O)n1Cc1ccc(-c2ccccc2S(=O)(=O)NC(=O)OCCC(C)C)cc1F

OUTPUT:
1: 1.24; 2: 3.2; 3: 0.92; 4: 2.1; 5: 1.1

###

biological target: Type-1 angiotensin II receptor (Homo sapiens, UniProt P30556)
Sequence (P30556 whole entry): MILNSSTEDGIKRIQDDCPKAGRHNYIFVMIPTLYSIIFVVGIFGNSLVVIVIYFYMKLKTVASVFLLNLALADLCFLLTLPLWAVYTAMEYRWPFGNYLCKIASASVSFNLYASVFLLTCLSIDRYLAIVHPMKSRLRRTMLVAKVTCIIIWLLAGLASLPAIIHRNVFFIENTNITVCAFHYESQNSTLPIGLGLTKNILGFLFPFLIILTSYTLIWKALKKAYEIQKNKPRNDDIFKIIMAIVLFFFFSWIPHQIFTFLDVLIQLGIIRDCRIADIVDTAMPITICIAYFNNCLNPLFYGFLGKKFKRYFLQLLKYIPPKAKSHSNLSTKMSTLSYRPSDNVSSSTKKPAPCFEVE
Exam item: assign Yes to entries whose IC50 is below 10 nM and No to entries at or above 10 nM. Note that a value of exactly 10 nM receives No.

Please review the following examples before continuing.
CCc1nc2ccc(NC(=O)c3ccccn3)cc2c(=O)n1Cc1ccc(-c2ccccc2S(=O)(=O)NC(=O)OCCC(C)C)cc1F ... No
CCCCOC(=O)NS(=O)(=O)c1ccccc1-c1ccc(Cn2c(CC)nc3ccc(NC(=O)N4CCOCC4)cc3c2=O)c(F)c1 ... No
Cc1nc2ccc(NC(=O)N(C)C)cc2c(=O)n1Cc1ccc(-c2ccccc2S(=O)(=O)NC(=O)OCCC2CC2)cc1F ... No
CCNC(=O)Nc1ccc2nc(CC)n(Cc3ccc(-c4ccccc4S(=O)(=O)NC(=O)c4ccccc4F)cc3F)c(=O)c2c1 ... No
CCCc1nc2ccc(NC(=O)N3CCOCC3)cc2c(=O)n1Cc1ccc(-c2ccccc2S(=O)(=O)NC(=O)OCCC(C)C)cc1F ... Yes

INPUT: Consider CCCCc1nc2ccc(NC(=O)N(C)C(C)C)cc2c(=O)n1Cc1ccc(-c2ccccc2S(=O)(=O)NC(=O)OCCC(C)C)cc1F . Does its IC50 lie strictly below 10 nM?
OUTPUT: Yes

INPUT: Consider CCc1nc2ccc(NC(=O)N(C)C(C)C)cc2c(=O)n1Cc1ccc(-c2ccccc2S(=O)(=O)NC(=O)OCC=C(C)C)cc1F . Does its IC50 lie strictly below 10 nM?
OUTPUT: No

INPUT: Consider CCCc1nc2ccc(NC(=O)NC(C)C)cc2c(=O)n1Cc1ccc(-c2ccccc2S(=O)(=O)NC(=O)c2ccc(CC)cc2F)cc1F . Does its IC50 lie strictly below 10 nM?
OUTPUT: Yes

###

Target: Type-1 angiotensin II receptor (Oryctolagus cuniculus)
Sequence (P34976 whole entry): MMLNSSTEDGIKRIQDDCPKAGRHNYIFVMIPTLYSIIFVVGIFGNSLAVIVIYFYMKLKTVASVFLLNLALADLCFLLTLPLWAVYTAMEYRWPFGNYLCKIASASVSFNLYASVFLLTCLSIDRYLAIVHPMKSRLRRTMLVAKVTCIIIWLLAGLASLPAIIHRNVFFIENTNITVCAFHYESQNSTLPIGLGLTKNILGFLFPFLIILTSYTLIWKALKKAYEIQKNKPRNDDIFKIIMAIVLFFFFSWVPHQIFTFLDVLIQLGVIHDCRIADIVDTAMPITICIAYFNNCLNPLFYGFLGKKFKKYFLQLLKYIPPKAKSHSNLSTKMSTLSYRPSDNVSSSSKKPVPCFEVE
pIC50: −log10 of the molar value.
Would you please tag the item MET when its pIC50 is 9 or above, and NOT MET when it is below?

Please review the following examples before continuing.
CCCc1nc2ccc(NC(=O)N3CCOCC3)cc2c(=O)n1Cc1ccc(-c2ccccc2S(=O)(=O)NC(=O)OCCC(C)C)cc1F ... MET
CCCCc1nc2ccc(NC(=O)N(C)C(C)C)cc2c(=O)n1Cc1ccc(-c2ccccc2S(=O)(=O)NC(=O)OCCC(C)C)cc1F ... MET
CCCc1nc2ccc(NC(=O)NC(C)C)cc2c(=O)n1Cc1ccc(-c2ccccc2S(=O)(=O)NC(=O)COCC(C)C)cc1F ... MET

Moving on to the next compound.
INPUT: Is reported pIC50 greater than or equal to 9 here: Cc1nc2ccc(NC(=O)N(C)C(C)C)cc2c(=O)n1Cc1ccc(-c2ccccc2S(=O)(=O)NC(=O)OCCC(C)C)cc1F
OUTPUT: NOT MET

###

biological target: Type-2 angiotensin II receptor (Rattus norvegicus, UniProt P35351); assay: […] inhibitory concentration against AT2 receptor of rat adrenal membrane
Sequence (P35351 whole entry): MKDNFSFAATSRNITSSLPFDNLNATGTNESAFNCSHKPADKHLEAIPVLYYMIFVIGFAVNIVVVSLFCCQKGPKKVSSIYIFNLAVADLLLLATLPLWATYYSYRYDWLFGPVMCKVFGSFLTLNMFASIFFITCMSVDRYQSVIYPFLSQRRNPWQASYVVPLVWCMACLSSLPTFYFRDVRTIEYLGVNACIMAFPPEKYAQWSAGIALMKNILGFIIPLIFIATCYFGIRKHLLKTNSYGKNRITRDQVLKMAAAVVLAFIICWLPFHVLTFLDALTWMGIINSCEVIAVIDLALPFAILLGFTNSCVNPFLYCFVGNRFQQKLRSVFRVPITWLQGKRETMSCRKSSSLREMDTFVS
measured-attribute: IC50 (nM)
Numbers only, in nM.

Examples with answers:
CCc1nc2ccc(NC(=O)N(C)C(C)C)cc2c(=O)n1Cc1ccc(-c2ccccc2S(=O)(=O)NC(=O)OCC=C(C)C)cc1F ... 1.04
CCCc1nc2ccc(NC(=O)NC(C)C)cc2c(=O)n1Cc1ccc(-c2ccccc2S(=O)(=O)NC(=O)COCC(C)C)cc1F ... 0.38

Need IC50 for each of these molecules.
1. CCc1nc2ccc(NC(=O)c3ccccn3)cc2c(=O)n1Cc1ccc(-c2ccccc2S(=O)(=O)NC(=O)OCCC(C)C)cc1F
2. CCNC(=O)Nc1ccc2nc(CC)n(Cc3ccc(-c4ccccc4S(=O)(=O)NC(=O)c4ccccc4F)cc3F)c(=O)c2c1

OUTPUT:
1. 0.63
2. 4.5

###

species: Oryctolagus cuniculus; assay: Ratio of inhibitory concentration against AT2 receptor of rat midbrain to AT1 receptor of rabbit aorta
measured-attribute: Ratio
Give bare numbers.

CCCc1nc2ccc(NC(=O)NC(C)C)cc2c(=O)n1Cc1ccc(-c2ccccc2S(=O)(=O)NC(=O)COCC(C)C)cc1F ... 1.7
CCc1nc2ccc(NC(=O)N(C)C(C)C)cc2c(=O)n1Cc1ccc(-c2ccccc2S(=O)(=O)NC(=O)OCC=C(C)C)cc1F ... 0.97
CCc1nc2ccc(NC(=O)N3CCOCC3)cc2c(=O)n1Cc1ccc(-c2ccccc2S(=O)(=O)NC(=O)OCCC(C)C)cc1F ... 0.16
CCCCc1nc2ccc(NC(=O)N(C)C(C)C)cc2c(=O)n1Cc1ccc(-c2ccccc2S(=O)(=O)NC(=O)OCCC(C)C)cc1F ... 1.3
CCCCOC(=O)NS(=O)(=O)c1ccccc1-c1ccc(Cn2c(CCCC)nc3ccc(NC(=O)N(C)C(C)C)cc3c2=O)c(F)c1 ... 2.7
CCCCc1nc2ccc(NC(=O)N(C)C(C)C)cc2c(=O)n1Cc1ccc(-c2ccccc2S(=O)(=O)NC(=O)OCCC2CC2)cc1F ... 2.5

Need Ratio for each of these compounds.
1. CCCc1nc2ccc(NC(=O)N3CCOCC3)cc2c(=O)n1Cc1ccc(-c2ccccc2S(=O)(=O)NC(=O)OCCC(C)C)cc1F
2. Cc1nc2ccc(NC(=O)N(C)C(C)C)cc2c(=O)n1Cc1ccc(-c2ccccc2S(=O)(=O)NC(=O)OCCC(C)C)cc1F
3. CCCCOC(=O)NS(=O)(=O)c1ccccc1-c1ccc(Cn2c(CC)nc3ccc(NC(=O)N4CCOCC4)cc3c2=O)c(F)c1
4. CCc1ccc(C(=O)NS(=O)(=O)c2ccccc2-c2ccc(Cn3c(CC)nc4ccc(NC(=O)N(C)C(C)C)cc4c3=O)c(F)c2)cc1
5. CCc1nc2ccc(NC(=O)N(C)C(C)C)cc2c(=O)n1Cc1ccc(-c2ccccc2S(=O)(=O)NC(=O)COCC(C)C)cc1F
6. Cc1nc2ccc(NC(=O)NC(C)C)cc2c(=O)n1Cc1ccc(-c2ccccc2S(=O)(=O)NC(=O)OCCC(C)C)cc1F
7. Cc1nc2ccc(NC(=O)N(C)C)cc2c(=O)n1Cc1ccc(-c2ccccc2S(=O)(=O)NC(=O)OCCC2CC2)cc1F
8. CCNC(=O)Nc1ccc2nc(CC)n(Cc3ccc(-c4ccccc4S(=O)(=O)NC(=O)OCCC4CC4)cc3F)c(=O)c2c1

OUTPUT:
2.3
0.45
0.38
1.6
0.1
0.59
3.3
0.97

###

biological target: UniProtKB P35351; assay: […] inhibitory concentration against Angiotensin II, type 2 of rat midbrain membrane
measured-attribute: pIC50
One number for each entry, as −log10 of the molar value.

Examples with answers:
CCCCOC(=O)NS(=O)(=O)c1ccccc1-c1ccc(Cn2c(CCCC)nc3ccc(NC(=O)N(C)C(C)C)cc3c2=O)cc1 ... 8.62
CCCCOC(=O)NS(=O)(=O)c1ccccc1-c1ccc(Cn2c(CC)nc3ccc(NC(=O)N4CCOCC4)cc3c2=O)c(F)c1 ... 8.89
CCc1nc2ccc(NC(=O)N(C)C(C)C)cc2c(=O)n1Cc1ccc(-c2ccccc2S(=O)(=O)NC(=O)OCCC(C)C)cc1F ... 9.70
CCc1nc2ccc(NC(=O)N(C)C(C)C)cc2c(=O)n1Cc1ccc(-c2ccccc2S(=O)(=O)NC(=O)OCCC2CC2)cc1F ... 9.41
CCCCc1nc2ccc(NC(=O)N(C)C(C)C)cc2c(=O)n1Cc1ccc(-c2ccccc2S(=O)(=O)NC(=O)OCCC2CC2)cc1F ... 9.54

Need pIC50 for each of these compounds.
1. CCc1ccc(C(=O)NS(=O)(=O)c2ccccc2-c2ccc(Cn3c(CC)nc4ccc(NC(=O)N(C)C(C)C)cc4c3=O)c(F)c2)cc1
2. CCCCc1nc2ccc(NC(=O)N(C)C(C)C)cc2c(=O)n1Cc1ccc(-c2ccccc2S(=O)(=O)NC(=O)OCCC(C)C)cc1F
3. Cc1nc2ccc(NC(=O)N(C)C(C)C)cc2c(=O)n1Cc1ccc(-c2ccccc2S(=O)(=O)NC(=O)OCCC(C)C)cc1F
4. Cc1nc2ccc(NC(=O)N(C)C)cc2c(=O)n1Cc1ccc(-c2ccccc2S(=O)(=O)NC(=O)OCCC2CC2)cc1F
5. CCc1nc2ccc(NC(=O)N3CCOCC3)cc2c(=O)n1Cc1ccc(-c2ccccc2S(=O)(=O)NC(=O)OCCC(C)C)cc1F
6. CCCc1nc2ccc(NC(=O)N3CCOCC3)cc2c(=O)n1Cc1ccc(-c2ccccc2S(=O)(=O)NC(=O)OCCC(C)C)cc1F
7. Cc1nc2ccc(NC(=O)NC(C)C)cc2c(=O)n1Cc1ccc(-c2ccccc2S(=O)(=O)NC(=O)OCCC(C)C)cc1F
8. CCc1nc2ccc(NC(=O)NC(C)C)cc2c(=O)n1Cc1ccc(-c2ccccc2S(=O)(=O)NC(=O)OCCC2CC2)cc1F

OUTPUT:
9.60
9.68
8.98
8.18
9.51
9.32
9.15
9.25

Need pIC50 for each of these compounds.
1. CCc1ccc(C(=O)NS(=O)(=O)c2ccccc2-c2ccc(Cn3c(CC)nc4ccc(NC(=O)NC(C)C)cc4c3=O)c(F)c2)c(F)c1
2. CCCCOC(=O)NS(=O)(=O)c1ccccc1-c1ccc(Cn2c(CCCC)nc3ccc(NC(=O)N(C)C(C)C)cc3c2=O)c(F)c1

OUTPUT:
1: 9.60; 2: 9.36

Where do the numbers come from? From ChEMBL document CHEMBL1150477.
